- system: Cathepsin B (Homo sapiens)
- experiment_description: Inhibition of human cathepsin-B at 20 uM using Z-Phe-Arg-AMC as substrate by fluorometric assay relative to control
Active and inactive are the calls of the source. No cut-off for these calls is given here.

| compound | inhibition |
| --- | --- |
| CCOC(=O)C1C(C(=O)OCc2ccccc2)N1C(=O)[C@H]1CCCN1C(=O)[C@H](CC(C)C)NC(=O)OC(C)(C)C (mixture of isomers) | inactive |
| CC(C)C[C@@H](NC(=O)OC(C)(C)C)C(=O)N1CCC[C@@H]1C(=O)N1[C@H](C(=O)OCc2ccccc2)[C@H]1C(=O)OCc1ccccc1 | inactive |
| CC(C)C[C@@H](NC(=O)OC(C)(C)C)C(=O)N1CCC[C@H]1C(=O)N1[C@@H](C(=O)OCc2ccccc2)[C@@H]1C(=O)OCc1ccccc1 | inactive |

These measurements were taken from ChEMBL document CHEMBL4270566.
